Molecular target: T1, GII.4 Sydney 2012 shell (S) domain (UniProt P54635 1-221)
T1 chain: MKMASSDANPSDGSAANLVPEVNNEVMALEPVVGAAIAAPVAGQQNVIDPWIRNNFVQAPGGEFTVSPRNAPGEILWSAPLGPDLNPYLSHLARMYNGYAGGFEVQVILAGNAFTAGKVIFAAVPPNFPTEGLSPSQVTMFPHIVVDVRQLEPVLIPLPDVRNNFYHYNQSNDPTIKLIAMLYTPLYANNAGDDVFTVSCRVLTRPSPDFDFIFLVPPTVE
Experiment: ELISA
readout_type: EC50 (µg/mL)
Just the number in µg/mL, nothing appended.

IN: Can you share its EC50? I mean this binder: NORO-256A (antibody, V domains shown) VH: QVQLVESGGGVVQAGRSLRLSCAASGFTFRSYGMHWVRQAPGKGLEWVAIISYDGGSKYYADSVKGRFTISRDNSKNTLYLQMNSLRVEDTALYYCAKDFLRVYSYGWHSFDIWGLGTLVTVSS VL: QSVLTQPPSVSAAPGQRVTISCSGSSSNIGTYYVSWYQHLPGTAPKLLIYDNDKRPSGIPDRFSASKSGTSATLDIAGLQTGDEADYYCGTWDLSLTAGWVFGGGTKLTVL
OUT: 0.4
